Each record here notes measured folding stability dG unfold.
Experiment: folding stability dG unfold (combined trypsin and chymotrypsin); higher = more stable

BIOSEQUENCE: SAGGSAGGSAGGADVPVAELEARGLGREALIAELGEDVTVTTEEHAPGAPVYRLTPLASSAGGSAGGSAGGS [r10_855_JUSTAS]
VALUE_PREFIX: <
folding stability dG unfold [kcal/mol]: -1
--
BIOSEQUENCE: KTIMIWFPFKSWEDVRNLIRDLARELNLPPGRDVDVKVERHPNNGYFRVTVTVSNPNGEKIDITIWFPMWDS [r1_84_TrROS]
VALUE_PREFIX: =
folding stability dG unfold [kcal/mol]: 4.91
--
BIOSEQUENCE: ARELPVEEIREAVREFLRKHGFRVVSEEVVELPDGSVLVFVEAEPEDKSTRYRLVITRPVDGSVRLVIEPVS [r1_460_TrMRF]
VALUE_PREFIX: =
folding stability dG unfold [kcal/mol]: 3.28
--
BIOSEQUENCE: SAGGKKVKIKVTIVIKVEPGESVEEIAKKLAEELGLKVEVKVEVVKRKDGSLYVVIEVEIELPEELKPSAGG [r13_590_TrROS_Hall]
VALUE_PREFIX: =
folding stability dG unfold [kcal/mol]: 2.85
--
BIOSEQUENCE: SAGGSAGGSAGGMKPGEKPEVEYRVRIYDADTGEWREVPLEDLKKLKLPPGAVVEIEKVSAGGSAGGSAGGS [r10_1121_TrROS_Hall]
VALUE_PREFIX: =
folding stability dG unfold [kcal/mol]: 2.93
--
BIOSEQUENCE: SAGGDWIPFRIKQYDPKDGKPKREWPIQYNPEDGMMQIRPPDGKKHEFPMPMQEILENLPPGFEIEPSAGGS [r16_543_TrROS]
VALUE_PREFIX: <
folding stability dG unfold [kcal/mol]: -1
--
BIOSEQUENCE: SAGLAAAIAAAGAIAEALGVTVRVEVFRDGELVGTFEIPAPVGDGEPVSLEVRLPDPEVTVRFELRIPGSAG [r14_728_TrMRF]
VALUE_PREFIX: =
folding stability dG unfold [kcal/mol]: 2.5
--
BIOSEQUENCE: FEELRNLPGLSLTPLAEEGEVRVYRLSLPPSVLAARGLPGVTVTVTVFPDGSYTVLPDDVPALEAAGLVVES [r1_256_JUSTAS]
VALUE_PREFIX: =
folding stability dG unfold [kcal/mol]: 2.03
--
BIOSEQUENCE: SAGGGMTPTITVTVHYPGETVTITLSSIEEALEYLKKQGLPINPTHSDPNTLVIEFPDGRTVTITLSSAGGS [r8_365_JUSTAS]
VALUE_PREFIX: =
folding stability dG unfold [kcal/mol]: 3.98
--
BIOSEQUENCE: SAGGSAGGSAGGMEKLSETVTETVEVTLTSGDKTYTFTVTTTTVVLPDGTVETLEVTLQPSAGGSAGGSAGG [r11_95_JUSTAS]
VALUE_PREFIX: =
folding stability dG unfold [kcal/mol]: 2.81
--
BIOSEQUENCE: SAIKIEDDPNGYQQIEIPNPENGRKIVITMMYSPDGQFQMSLQRMDPNGKKKTITAPMPVEEAIDELKDSAG [r14_179_TrROS]
VALUE_PREFIX: =
folding stability dG unfold [kcal/mol]: 0.0571
--
BIOSEQUENCE: SAGFEARVLEVVDLGDRRVALFELRDPEEGRYLLAVAVYDPETGLARVELWDPTDGRLVATPVVPVLPLSAG [r5_440_TrMRF]
VALUE_PREFIX: =
folding stability dG unfold [kcal/mol]: 2.12
--
BIOSEQUENCE: SAGGGSMVEKTISTTDPKYVKILKKLEEAPEDEVVTIKEPNKDIEVLSFDKVDDNYKLLMKLPPSILSAGGS [r16_404_JUSTAS]
VALUE_PREFIX: =
folding stability dG unfold [kcal/mol]: -0.773
--
BIOSEQUENCE: SAGGSAGGSMDLKNAKIISIEETENEIKITIEVDGKLYTITISKEEAEKLKKLLEDLNIEIIPSAGGSAGGS [r12_604_TrROS_Hall]
VALUE_PREFIX: =
folding stability dG unfold [kcal/mol]: 4.27
